- Assay Name: chemical genetic growth profiling, strain panel (AID 1159580);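 further: tested at 20 µM; growth read once vehicle control cultures reached saturation at 30 °C; 1 = growth at the plate median or of vehicle wells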
- Setup Conditions: S. cerevisiae deletion strains, growth OD, locus YLL026W
Among all 5,500 compounds or so, about 2,000 (36%) were called active. Inconclusive results (about 18%) are left out. No stated cut-off is given here; in the data, active means normalized growth mostly below about 0.91 (no sharp cut-off); inconclusive means no clear call, values can overlap the other calls; inactive means mostly above about 0.92. This is one part of the list.
API: response.call in 1 (yes) = active, 0 (no) = inactive

Solved entries (count: 3):
| Molecule | Discrete Label |
| --- | --- |
| C=C[C@@](C)(O)CCC1C(=C)C[C@H](OC(C)=O)C2C(C)(C)CCCC12C (stereo partly drawn) | 0 (no) |
| CN(C)CCCC1(c2ccc(F)cc2)OCc2cc(C#N)ccc21 (stereo not drawn) | 0 (no) |
| N=c1ccn2c(n1)OC1C(O)C(CO)OC12 (stereo not drawn) | 0 (no) |

Test call, this molecule: COc1ccc([C@H]2Oc3c(I)c(OC)cc(OC)c3C[C@@H]2O)cc1OC
0 (no)

Test call, this molecule: CCC[C@H](N[C@@H](C)C(=O)N1[C@H](C(=O)O)C[C@@H]2CCCC[C@@H]21)C(=O)OCC
0 (no)

Test call, this molecule: CC[C@@H]1C=C/C=C/C[C@H](C)[C@@H](O)[C@](C)(O)C(=O)[C@H](C)[C@@H](O)[C@H](C)C(=O)[C@H](C)[C@@H](O)[C@H](C)/C=C/C(=O)O[C@H]2[C@@H](C)[C@@H](CC1)O[C@@]1(CC[C@@H](C)[C@@H](C[C@H](C)O)O1)[C@@H]2C
0 (no)

Test call, this molecule: C=C1CCC2[C@](C)(CO)[C@H](O)CC[C@@]2(C)[C@@H]1C/C=C1/C(=O)OC[C@H]1O (stereo partly drawn)
0 (no)

Test call, this molecule: O=c1c(-c2ccc(O)cc2)coc2cc(O)ccc12
0 (no)

Test call, this molecule: C=C[C@@](C)(O)CCC1C(=C)C[C@H](O)C2C(C)(C)CCCC12C (stereo partly drawn)
0 (no)

Test call, this molecule: COc1ccc(-c2coc3cc(O)ccc3c2=O)c(O)c1O
0 (no)

Test call, this molecule: CC[C@@]1(O)C[C@H](O[C@H]2C[C@H](N(C)C)[C@H](O)[C@H](C)O2)c2c(cc3c(c2O)C(=O)c2c(O)ccc(O)c2C3=O)[C@H]1C(=O)OC
0 (no)

Test call, this molecule: Oc1cc(O)c2c(c1)O[C@H](c1cc(O)c(O)c(O)c1)[C@H](O)C2
0 (no)

###

- Assay Name: chemical genetic growth profiling, strain panel (AID 1159580)
- Setup Conditions: S. cerevisiae deletion strains, growth OD, locus YOR083W, strain WHI5, hits give low values
In all, about 5,500 compounds went through this assay and about 2,000 (36%) were called active. About 18% were inconclusive and are not listed. Some of the results follow.
// classify: if (normalized growth < 1) T else F

Solved entries (count: 8):
| Molecule | Discrete Label |
| --- | --- |
| COc1ccc(-c2coc3cc(O)ccc3c2=O)c(O)c1O | T |
| CC1(C)S[C@@H]2[C@H](NC(=O)[C@H](N)c3ccccc3)C(=O)N2[C@H]1C(=O)O | T |
| C[C@H]1COc2c(N3CCN(C)CC3)c(F)cc3c(=O)c(C(=O)O)cn1c23 | F |
| COc1ccc(-c2coc3cc(O)ccc3c2=O)cc1 | T |
| COc1ccc([C@H]2Oc3c(I)c(OC)cc(OC)c3C[C@@H]2O)cc1OC | F |
| C/C=C(\C)C(=O)O[C@H]1C[C@@H](OC(C)=O)[C@@]2(C(=O)OC)CO[C@@H]3C2[C@]12CO[C@](O)(C(=O)OC)[C@H]2[C@](C)(C12O[C@@]1(C)[C@H]1C[C@@H]2OC2OC=C[C@@]21O)[C@@H]3O (stereo partly drawn) | T |
| CC1COc2c(N3CCN(C)CC3)c(F)cc3c(=O)c(C(=O)O)cn1c23 (stereo not drawn) | T |
| CCCCCCCCCCCCCc1ccco1 | T |

Switching to the query record.
Answer whether the molecule C=CCCCCCCCCCCCc1ccco1 has normalized growth strictly less than 1
T

###

- Assay Name: chemical genetic growth profiling, strain panel (AID 1159580)
- Setup Conditions: S. cerevisiae deletion strains, growth OD, locus YJL187C, strain SWE1
Out of some 5,500 compounds screened, about 2,000 (36%) were called active. Not shown: some 18% with an inconclusive outcome. No stated cut-off is given here; in the data, active means normalized growth mostly below about 0.91 (no sharp cut-off); inconclusive means no clear call, values can overlap the other calls; inactive means mostly above about 0.92. The list shows a part of the results.
API: response.call in y = active, n = inactive

| Compound | Discrete Label |
| --- | --- |
| O=c1cccc2ccc(O)c(O)c2c1O | y |
| CNCCC(Oc1ccc(C(F)(F)F)cc1)c1ccccc1 (stereo not given) | n |
| CC[C@@H](C(=O)C(C)[C@@H](O)[C@H](C)CCc1ccc(C)c(O)c1C(=O)O)C1OC(CC)(C2CC[C@](O)(CC)[C@H](C)O2)C[C@@H]1C (stereo not given in full) | n |

Test call, this compound: CO/N=C1/CN(c2nc3c(cc2F)c(=O)c(C(=O)O)cn3C2CC2)CC1CN (stereo not given)
n

Test call, this compound: C=C[C@@](C)(O)CCC1C(=C)C[C@H](OC(C)=O)C2C(C)(C)CCCC12C (stereo not given in full)
n

Test call, this compound: Cc1onc(-c2c(Cl)cccc2Cl)c1-c1nc(-c2ccc3c(c2)OCCO3)cs1
n

Test call, this compound: O=C(c1ccc(OCCN2CCCCC2)cc1)c1c(-c2ccc(O)cc2)sc2cc(O)ccc12
n

Test call, this compound: CC(=O)S[C@@H]1CC2=CC(=O)CC[C@]2(C)[C@H]2CC[C@@]3(C)[C@@H](CC[C@@]34CCC(=O)O4)C12 (stereo not given in full)
n

Test call, this compound: Cc1ncc(CNC(=O)N(CCCl)N=O)c(N)n1
n

Test call, this compound: CCN(CC)C(=O)N1CCN(C)CC1
n

###

- Assay Name: chemical genetic growth profiling, strain panel (AID 1159580);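 further: tested at 20 µM; growth read once vehicle control cultures reached saturation at 30 °C; 1 = growth at the plate median or of vehicle wells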
- Setup Conditions: S. cerevisiae deletion strains, growth OD, locus YAR019C, strain CDC15, hits give low values
Screen size: about 5,500 compounds; about 2,000 (36%) were called active. About 18% were inconclusive and are not listed. The list shows a part of the results.
Quantity Measured: normalized growth

These solved cases illustrate the format of a correct answer.
| Structure As Smiles | Result |
| --- | --- |
| CC1(C)CC(=O)C=C(Sc2nc3ccccc3o2)C1 | 0.966 (inactive) |
| CC(=O)c1ccc(Cl)c(NS(=O)(=O)c2cc(Cl)c(Cl)cc2Cl)c1 | 0.906 (inactive) |
| O=C(NCc1ccc(Cl)c(Cl)c1)c1cccnc1OCC(F)(F)F | 0.956 (inactive) |

API: the following record is the query input.
Looking for the measured normalized growth of O=C(ON=C1CCCCC1)c1ccc([N+](=O)[O-])cc1 , can you help?
0.949 (inactive)

###

- Assay Name: chemical genetic growth profiling, strain panel (AID 1159580);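 further: tested at 20 µM; growth read once vehicle control cultures reached saturation at 30 °C; 1 = growth at the plate median or of vehicle wells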
- Setup Conditions: S. cerevisiae deletion strains, growth OD, locus YNR052C, strain pop2, hits give low values
About 2,000 (36%) of roughly 5,500 compounds were called active. About 18% were inconclusive and are not listed. The list shows a part of the results.
Quantity Measured: normalized growth
Numbers only.

| Molecule | normalized growth |
| --- | --- |
| NCCCS(=O)(=O)O | 0.969 |

Items follow; give normalized growth for each.
1. COc1cc2nc(N(C)CCCNC(=O)C3CCCO3)nc(N)c2cc1OC (stereo not drawn)
2. c1ccc2c(c1)CCCC2C1=NCCN1 (stereo not drawn)
3. CCC[C@H](N[C@@H](C)C(=O)N1[C@H](C(=O)O)C[C@@H]2CCCC[C@@H]21)C(=O)OCC
4. O=S(=O)(O)CCS
5. COc1cc([C@@H]2c3cc4c(cc3C(OC3O[C@@H]5COC(C)O[C@H]5[C@H](O)[C@H]3O)C3COC(=O)[C@@H]32)OCO4)cc(OC)c1O (stereo partly drawn)
6. COc1cc(CNC(=O)CCCC/C=C/C(C)C)ccc1O
7. O=c1cccc2ccc(O)c(O)c2c1O

[0.995, 1.01, 1.02, 0.995, 0.985, 0.985, 0.328]

###

- Assay Name: chemical genetic growth profiling, strain panel (AID 1159580);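 further: tested at 20 µM; growth read once vehicle control cultures reached saturation at 30 °C; 1 = growth at the plate median or of vehicle wells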
- Setup Conditions: S. cerevisiae deletion strains, growth OD, locus YJL115W, strain asf1, hits give low values
Out of some 5,500 compounds screened, about 2,000 (36%) were called active. About 18% were inconclusive and are not listed. Some of the results follow.
Provide the reported normalized growth of each item.
Numbers only.

These solved cases illustrate the format of a correct answer.
| Compound | Quantity Measured | Quantitative Result |
| --- | --- | --- |
| COc1ccc(C(c2ccc(OC)cc2)C(Cl)(Cl)Cl)cc1 | normalized growth | 1.01 |
| Clc1ccc(C(OCCN2CCCCC2)c2ccccc2)cc1 (configuration not stated) | normalized growth | 1.02 |
| COC(=O)C[C@H]1C2(C)CC34OC5(C)O[C@@]6([C@H](OC(C)=O)C(OC(C)=O)[C@]7(C)C(/C(=C(/O)C(C)C)C(=O)O[C@H]7c7ccoc7)[C@@]6(O5)[C@H](OC(C)=O)[C@@]3(O)C2OC(=O)C(C)C)[C@]14C (some centres not stated) | normalized growth | 0.989 |

Items follow; give normalized growth for each.
1. Cc1ccc(S(=O)(=O)NC(=O)NN2CCCCCC2)cc1
2. O=c1c(-c2ccc(O)cc2)coc2cc(O)ccc12
3. O=C1NCC2(CCN(CCc3ccccc3)CC2)O1
4. Clc1ccc(C(c2ccc(Cl)cc2)C(Cl)(Cl)Cl)cc1
5. C=CCc1ccc(O)c(OC)c1
6. O=S(=O)(O)c1cc(N=C=S)ccc1/C=C/c1ccc(N=C=S)cc1S(=O)(=O)O
7. CCC(C)C(=O)O[C@@H]1C[C@@]2(C)[C@H](c3ccoc3)OC(=O)CC23OC2(C)O[C@]14[C@]1(C)[C@@H](CC(=O)OC)C5(C)CC1(O)[C@](O)(C5OC(=O)C1(C)OC1C)[C@@H](OC(C)=O)[C@]34O2 (some centres not stated)
8. CC#CC1(O)CCC2C3CCC4=CC(=O)CCC4=C3C(c3ccc(N(C)C)cc3)CC21C (configuration not stated)

1: 0.979; 2: 0.994; 3: 0.976; 4: 1.02; 5: 0.982; 6: 1.02; 7: 1; 8: 1.02

Items follow; give normalized growth for each.
1. O=C(O)/C=C/c1ccc(O)c(O)c1
2. NS(=O)(=O)c1cc2c(cc1Cl)NC=NS2(=O)=O

[0.991, 1.01]

Items follow; give normalized growth for each.
1. CCCCCCCCCCCCCc1ccco1
2. CN(C)CCN(Cc1ccccc1)c1ccccn1

[0.99, 1.02]

Items follow; give normalized growth for each.
1. CC1COc2c(N3CCN(C)CC3)c(F)cc3c(=O)c(C(=O)O)cn1c23 (configuration not stated)
2. COC(=O)/C=C/C(C)=C/C=C/C(C)=C/C=C/C=C(C)/C=C/C=C(C)/C=C/C(=O)O
3. CN(C)CCOC(c1ccc(Cl)cc1)c1ccccn1 (configuration not stated)
4. COc1ccc(OC)c(C(O)CNC(=O)CN)c1 (configuration not stated)
5. COc1ccc(C(=O)O)cc1OC
6. CC1CCc2cc(F)cc3c(=O)c(C(=O)O)cn1c23 (configuration not stated)
7. C=CCCCCCCCCCCCc1ccco1
8. O=S(=O)(O)CCS

1: 0.971; 2: 1.01; 3: 1.02; 4: 1; 5: 0.995; 6: 0.983; 7: 0.984; 8: 0.983

Items follow; give normalized growth for each.
1. COc1ccc(-c2coc3cc(O)ccc3c2=O)c(OC)c1
2. C#CCCCCCCCCCCCc1ccco1
3. O=C(/C=C/c1ccc(O)c(O)c1)OC(Cc1ccc(O)c(O)c1)C(=O)O (configuration not stated)
4. CCC(C)C(=O)O[C@@H]1C[C@@]2(C)[C@H](c3ccoc3)OC(=O)CC23OC2(C)OC34[C@H](OC(=O)C(C)C)[C@@]3(O)[C@@H](OC(=O)C5(C)OC5C)[C@@]5(C)C[C@]3(O)[C@@](C)([C@H]5CC(=O)OC)C14O2 (some centres not stated)

1. 1.01
2. 0.987
3. 1.02
4. 1.01
